Here the recorded IC50 ratio (A3R/A2aR) is given for each entry.
biological target: adenosine A3 receptor (A3R) (Homo sapiens (Human)); experiment: Inhibition of adenosine A3 receptor cAMP signaling pathway (HTRF cAMP, CHO-K1/A3R cells); assay type: cell-based; conditions: Table 2

Guide cases for IC50 ratio (A3R/A2aR), answers given:
structure-string | test-target | measurement-label | experimental-value
Cc1cc(-c2c(-c3ccccc3)nc(N)n3cnnc23)cc2cccnc12 | adenosine A3 receptor (A3R) (Homo sapiens (Human)) | IC50 ratio (A3R/A2aR) | 1.5 × 10^4
Cc1cc(-c2c(-c3ccc(Cl)cc3F)nc(N)n3cnnc23)cc(C(F)F)n1 | adenosine A3 receptor (A3R) (Homo sapiens (Human)) | IC50 ratio (A3R/A2aR) | >10^3
Cc1cc(-c2c(-c3ccc(Cl)cc3)nc(N)n3cnnc23)cc(C(F)F)n1 | adenosine A3 receptor (A3R) (Homo sapiens (Human)) | IC50 ratio (A3R/A2aR) | >10^4

get_value(item= `Cc1cc(-c2c(-c3ccc(F)cc3F)nc(N)n3cnnc23)cc(C(F)F)n1` , readout=IC50 ratio (A3R/A2aR)) returns >4.3 × 10^3

get_value(item= `Cc1cc(-c2c(-c3ccc(F)cc3F)nc(N)n3cnnc23)cc(C(F)(F)F)n1` , readout=IC50 ratio (A3R/A2aR)) returns >2.5 × 10^3

get_value(item= `Cc1cc(-c2c(-c3ccc(F)cc3)nc(N)n3cnnc23)cc(CF)n1` , readout=IC50 ratio (A3R/A2aR)) returns >10^3

get_value(item= `Cc1cc(-c2c(-c3ccc(F)cc3)nc(N)n3cnnc23)cc(C)n1` , readout=IC50 ratio (A3R/A2aR)) returns >1.9 × 10^4

get_value(item= `Cc1cc(-c2c(-c3ccccc3F)nc(N)n3cnnc23)cc(CF)n1` , readout=IC50 ratio (A3R/A2aR)) returns >10^3

get_value(item= `Cc1cc(-c2c(-c3ccccc3F)nc(N)n3cnnc23)cc(C(F)F)n1` , readout=IC50 ratio (A3R/A2aR)) returns >10^3

###

target: adenosine A1 receptor (A1R) (Homo sapiens (Human), UniProt P30542); experiment: Inhibition of adenosine A1 receptor cAMP signaling pathway (HTRF cAMP, CHO-K1/A1R cells); format: cell-based; conditions: Table 2; selectivity A1R over A2aR
Sequence (P30542 whole entry): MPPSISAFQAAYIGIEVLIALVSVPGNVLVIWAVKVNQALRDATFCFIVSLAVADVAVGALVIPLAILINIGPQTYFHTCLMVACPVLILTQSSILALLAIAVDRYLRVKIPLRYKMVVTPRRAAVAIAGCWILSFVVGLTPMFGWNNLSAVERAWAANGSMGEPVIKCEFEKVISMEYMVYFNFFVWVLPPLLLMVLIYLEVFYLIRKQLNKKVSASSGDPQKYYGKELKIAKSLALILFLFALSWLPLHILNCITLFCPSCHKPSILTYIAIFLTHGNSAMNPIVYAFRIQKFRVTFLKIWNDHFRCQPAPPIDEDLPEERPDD
Here the recorded IC50 ratio (A1R/A2aR) is given for each entry.
API doc: respond with a numeric literal and nothing else, no unit.

Guide cases for IC50 ratio (A1R/A2aR), answers given:
structure-string | IC50 ratio (A1R/A2aR)
Cc1cc(-c2c(-c3ccc(F)cc3F)nc(N)n3cnnc23)cc(C(F)F)n1 | 223
Cc1cc(-c2c(-c3ccccc3F)nc(N)n3cnnc23)cc(C)n1 | 180
Nc1nc(-c2ccccc2)c(-c2cc(F)c3ncccc3c2)c2nncn12 | 100
Cc1cc(-c2c(-c3ccc(F)cc3F)nc(N)n3cnnc23)cc(C(F)(F)F)n1 | 103
Cc1cc(-c2c(-c3ccc(F)cc3)nc(N)n3cnnc23)cc(CF)n1 | 214

Result for `Cc1cc(-c2c(-c3ccc(Cl)cc3)nc(N)n3cnnc23)cc(C(F)F)n1` , tested on adenosine A1 receptor (A1R) (Homo sapiens (Human), UniProt P30542), IC50 ratio (A1R/A2aR): 85

###

Here the recorded IC50 ratio (A3R/A2aR) is given for each entry.
Molecular target: adenosine A3 receptor (A3R) (Homo sapiens (Human), UniProt P0DMS8)
Sequence (P0DMS8 whole entry): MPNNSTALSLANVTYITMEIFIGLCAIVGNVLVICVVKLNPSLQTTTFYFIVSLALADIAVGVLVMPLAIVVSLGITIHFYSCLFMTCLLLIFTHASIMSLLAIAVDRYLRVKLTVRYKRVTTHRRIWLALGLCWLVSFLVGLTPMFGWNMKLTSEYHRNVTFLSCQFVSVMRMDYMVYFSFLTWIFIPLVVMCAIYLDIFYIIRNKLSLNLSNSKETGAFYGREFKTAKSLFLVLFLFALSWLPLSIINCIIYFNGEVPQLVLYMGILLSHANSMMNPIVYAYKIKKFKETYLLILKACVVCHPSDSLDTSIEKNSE
Assay: Inhibition of adenosine A3 receptor cAMP signaling pathway (HTRF cAMP, CHO-K1/A3R cells)
Type: cell-based
Conditions: Table 2
Experimental: Test Example 1. […] The inhibition activity of the compounds of the present invention on the adenosine A2a receptor cAMP signaling pathway, the adenosine A2b receptor cAMP signaling pathway, the adenosine A1 receptor cAMP signaling pathway and the adenosine A3 receptor cAMP signaling pathway was determined by the following method. […]

Guide cases for IC50 ratio (A3R/A2aR), answers given:
compound | experimental-value
Nc1nc(-c2ccccc2)c(-c2ccc3ncccc3c2)c2nncn12 [Example 3] | 2.9 × 10^4
Cc1cc(-c2c(-c3ccccc3F)nc(N)n3cnnc23)cc(C)n1 [Example 19] | >10^4
Nc1nc(-c2ccccc2)c(-c2cc(F)c3ncccc3c2)c2nncn12 [Example 7] | 3.1 × 10^4

get_value(item= Cc1cc(-c2c(-c3ccc(F)cc3)nc(N)n3cnnc23)cc(C(F)F)n1 [Example 51] , readout=IC50 ratio (A3R/A2aR)) returns >10^4

get_value(item= Cc1cc(-c2c(-c3ccccc3)nc(N)n3cnnc23)cc(C)n1 [Example 11] , readout=IC50 ratio (A3R/A2aR)) returns >6.7 × 10^4

get_value(item= Cc1cc(-c2c(-c3ccccc3F)nc(N)n3cnnc23)cc(Cl)n1 [Example 27] , readout=IC50 ratio (A3R/A2aR)) returns >2 × 10^4

get_value(item= Cc1cc(-c2c(-c3ccccc3)nc(N)n3cnnc23)cc(Cl)n1 [Example 4] , readout=IC50 ratio (A3R/A2aR)) returns >1.3 × 10^5

Measured values drawn from patent US11312705B2 for this set.
